System: UACC-62 melanoma
test.description: NCI-60 one-dose screen, 48 h
assay.context: 10 µM
This is part of a sample that, as a whole, favours compounds with a hit. Of some 83,000 tested, about 20% had one in any assay. The source made the active and inactive calls. Rule for the calls: active = growth percent below 10; inactive = the rest.
Parameter call: string, one of Yes (active), No (inactive)

Exercise: Which outcome was assigned to COc1cc2cc(C(=O)N3C[C@@H](CCl)c4c3cc(OC(=O)N3CCN(C)[C@@H]5CSSC[C@H]53)c3ccccc43)[nH]c2c(OC)c1OC in this test?
Solution: Yes

Exercise: Follow-up entry: COC(=O)c1ccc(-n2cc(CCCN(CCNc3ccnc4cc(Cl)ccc34)C(=O)CCC(=O)O[C@@H]3O[C@@H]4OC5(C)CC[C@H]6[C@H](C)CC[C@@H]([C@H]3C)[C@@]46OO5)nn2)cc1
Solution: No

Exercise: Follow-up entry: COc1ccc(OC)c(/C=C/C(=O)c2nc3ccccc3n2Cc2ccc(F)cc2)c1
Solution: Yes

Exercise: Follow-up entry: N#C[Se]CC(=O)Nc1cccc(C(F)(F)F)c1
Solution: Yes

Values compiled from PubChem BioAssay (NCI).
